meta.source: patent US7786129B2

Counter-ions that a name gives are not always drawn.
Measured IC50 (5-HT1A receptor (Rattus norvegicus, UniProt P19327))

// fetch IC50 for CCC1(CCCCN2CCN(c3ccc(Cl)c(C(F)(F)F)c3)CC2)C(=O)Nc2ccccc21 (stereo not shown) [Example 96, monohydrochloride] ; system: 5-HT1A receptor (Rattus norvegicus, UniProt P19327)
Sequence (P19327 whole entry): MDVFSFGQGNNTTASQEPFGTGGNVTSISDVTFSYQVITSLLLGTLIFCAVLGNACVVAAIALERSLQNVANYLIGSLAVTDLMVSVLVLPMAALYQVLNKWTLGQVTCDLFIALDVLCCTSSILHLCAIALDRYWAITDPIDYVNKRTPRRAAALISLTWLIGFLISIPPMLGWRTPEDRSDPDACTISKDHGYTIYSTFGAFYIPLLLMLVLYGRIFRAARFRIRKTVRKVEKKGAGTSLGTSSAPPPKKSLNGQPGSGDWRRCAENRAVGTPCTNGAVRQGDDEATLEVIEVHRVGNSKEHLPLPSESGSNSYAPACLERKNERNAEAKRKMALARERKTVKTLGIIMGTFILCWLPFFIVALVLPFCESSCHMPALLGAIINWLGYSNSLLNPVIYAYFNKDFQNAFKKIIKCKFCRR
> 0.4 µM

Specify IC50 for CCC1(CCCCN2CCN(c3cccc(Cl)c3)CC2)C(=O)Nc2cc(F)c(Cl)cc21 (stereo not shown) [Example 89, monohydrochloride] , system 5-HT1A receptor (Rattus norvegicus, UniProt P19327).
> 0.3 µM

// fetch IC50 for CC(C)CC1(CCCCN2CCN(c3cccc(Cl)c3)CC2)C(=O)Nc2ccccc21 (stereo not shown) [Example 75, monohydrochloride] ; system: 5-HT1A receptor (Rattus norvegicus, UniProt P19327)
> 0.2 µM

Specify the recorded IC50 for CCC1(CCCCN2CCN(c3ccccc3)CC2)C(=O)Nc2ccccc21 (stereo not shown) [Example 68, monooxalate] , system: 5-HT1A receptor (Rattus norvegicus, UniProt P19327).
> 0.2 µM

Provide 5-HT1A receptor (Rattus norvegicus, UniProt P19327) IC50 reading for CCC1(CCCCN2CCN(c3cccc(Cl)c3)CC2)C(=O)Nc2c(Cl)cc(Cl)cc21 (stereo not shown) .
> 0.4 µM

Recall the reported IC50 of CCC1(CCCCN2CCN(c3cccc(Cl)c3)CC2)C(=O)Nc2ccc(Br)cc21 (stereo not shown) [Example 61, monooxalate] when tested on 5-HT1A receptor (Rattus norvegicus, UniProt P19327).
> 0.2 µM

Give IC50 for CCC1(CCCCN2CCN(c3cccc(Cl)c3)CC2)C(=O)Nc2ccc(S(N)(=O)=O)cc21 (stereo not shown) [Example 72, monooxalate] tested on 5-HT1A receptor (Rattus norvegicus, UniProt P19327).
> 0.2 µM
